Test system: EKVX NSCLC
Test: NCI-60 one-dose screen, 48 h
Details: 10 µM unless noted
The panel holds about 83,000 compounds, 20% with a hit somewhere; the sample as a whole holds those more often. Activity calls are given as the source filed them. Rule for the calls: active = growth percent below 10; inactive = the rest.
Labels: Yes = active, No = inactive

compound: COc1ccc2c(c1)c(-c1nc(N)nnc1-c1c[nH]c3ccccc13)cn2C
className: No

compound: O=C(/C=C/c1ccc(Cl)c(Cl)c1)Nc1ncc(Cc2ccc(Cl)c(Cl)c2)s1
className: No

compound: N#Cc1cnc2ccc(-c3cnc4n[nH]nc4c3)cc2c1N1CCc2cc(F)c(Cl)cc21
className: Yes

compound: COc1ccc2c(c1)c(/C=N/Nc1ccnc3cc(Cl)ccc13)cn2C
className: Yes

compound: N#Cc1c(-c2ccc(Br)cc2)cc(-c2c[nH]c3ccccc23)nc1N
className: No

compound: CC(=O)c1cc(C(=O)N2c3ccccc3Sc3ccccc32)n2c1ccc1ccccc12
className: No

compound: C#C[C@]1(O)CC[C@H]2[C@@H]3CC=C4c5sc(N(C)c6ccccc6)nc5CC[C@]4(C)[C@H]3CC[C@@]21C
className: No

compound: COc1ccc(C2C(C#N)=C(/N=C/c3ccc(Cl)cc3)Oc3c2sc2c(C)cccc32)cc1 (centres undefined)
className: No

compound: COc1cc(-c2nc(-c3ccccc3)[nH]c2-c2ccnc(NCCCNS(=O)(=O)c3cccc(F)c3)n2)ccc1F
className: No

---

Tested on: HCT-116 colon
Assay: NCI-60 one-dose screen, 48 h (100 = growth as untreated, 0 = no growth, -100 = all killed)
Conditions: 10 µM unless noted
The panel holds about 83,000 compounds, 20% with a hit somewhere; the sample as a whole holds those more often.
Give 1 when the value for growth is at least 70%. Give -1 when it is less.

molecule: CC(C)(C)OC(=O)NCc1ccc(CNc2c([N+](=O)[O-])cnc3ccccc23)cc1
className: -1

molecule: Nn1c(=O)n(-c2cccc(C(F)(F)F)c2)c(=O)c2cc(-c3ccc(F)cc3F)ccc21
className: -1

molecule: CCOC(=O)c1c(N)c(C#N)cn1Cc1ccc(Cl)cc1Cl
className: -1

molecule: O=C1C(SCc2ccccc2)=C(Cl)CN1c1ccc(Cl)cc1
className: 1

molecule: CCOC(=O)c1c(NC(=O)c2cccc(C(F)(F)F)c2)sc2c1CCC(=O)C2
className: -1

molecule: COc1ccc([C@@H]2C(=O)N(c3cc(OC)c(OC)c(OC)c3)[C@H]2c2ccc(OC)c(O)c2)cc1
className: -1

molecule: Cc1csc(/N=C(N)/N=C(\N)c2cccs2)n1
className: 1

molecule: CN1CCN(Cc2ccc(NC(=O)c3cncc(C#Cc4cnc5ccc(OCCCS(C)(=O)=O)nn45)c3)cc2C(F)(F)F)CC1
className: -1

molecule: Cc1ccc2c(n1)C(=O)C(Cl)=C(Nc1cccc(C(F)(F)F)c1)C2=O
className: -1

molecule: CCN(CC)S(=O)(=O)c1ccc(-c2nc(C(Cl)Cl)nc3cc(-c4ccc(F)cc4)nn23)cc1
className: -1

molecule: Cc1nc(/N=C(N)/N=C(\N)c2cccc(Br)c2)sc1C
className: -1

molecule: Cc1ccccc1N1CCN(C2=C(Cl)C(=O)c3ncccc3C2=O)CC1
className: -1

molecule: O=C(Nc1ccc(N2CCOCC2)cc1)Nc1ccc2c(ccn2C(=O)c2cccc(F)c2)c1
className: -1

molecule: CCc1cc2c(cc1Cl)nc1c(=O)[nH]c(=O)nc-1n2CCOCC(C)C
className: -1

molecule: COCCOc1ccc2ncc(C#Cc3cncc(C(=O)Nc4ccc(CN5CCN(C)CC5)c(C(F)(F)F)c4)c3)n2n1
className: -1

molecule: C=CCSC1=NC2C(N(CC)C(=O)N2CC)N1/N=C/C=C/c1ccccc1OC (stereo unspecified)
className: 1

molecule: COC(=O)CCCNCCCn1ccc2cc(NCc3cccc(-c4ccccc4)c3C)ccc21
className: -1

molecule: NC1[C@H]2CN(c3cnc(C(=O)Nc4cc(F)cc5cccnc45)cn3)C[C@@H]12 (stereo partly specified)
className: -1

molecule: CC(=O)Nc1nc(C)c(-c2csc(Nc3ccccc3)n2)s1
className: -1

molecule: Cc1[nH]c(C(=O)Nc2ccc(C(N)=O)cc2N2CCOC(C)C2)c(Cl)c1Cl (stereo unspecified)
className: 1

molecule: N/C(=N\C(N)=N\c1nc2ccccc2s1)c1ccc(Cl)cc1
className: 1

molecule: Brc1cccc(-c2cc(-c3ccc4c(c3)OC=CO4)[nH]n2)c1
className: -1

molecule: CCCc1[nH]c(-c2cc(N)ccc2Cl)c2c1C(=O)CCCC2
className: 1

molecule: O=C(CCCCCCN1CC(=O)N2[C@@H](c3cccs3)c3[nH]c4ccccc4c3C[C@H]2C1=O)NO
className: -1

molecule: CC1=C(C)C(=O)C(Nc2cccc(C(=O)OC(C)(C)C)c2)=CC1=O
className: 1

molecule: CC[C@]12CC(C(=O)OC)=C3Nc4ccccc4[C@@]34CCN(C14)[C@@H]1c3cc4c(cc3O[C@@H]1[C@H]2O)NC1=C(C(=O)OC)C[C@@]2(CC)C3N(CC[C@@]143)C[C@H]1O[C@H]12 (stereo partly specified)
className: -1

molecule: Cc1ccc2c(n1)C(=O)C(Cl)=C(Nc1ccc(C(C)C)cc1)C2=O
className: -1

molecule: O=c1c2cc(-c3ccc(F)cc3F)ccc2n(Nc2ccccc2)c(=O)n1-c1cccc(C(F)(F)F)c1
className: -1

molecule: CC1=C(C)C(=O)C(Nc2ccc3c(c2)OCCO3)=C(Br)C1=O
className: 1

molecule: O=[N+]([O-])c1ccc(NC(=S)NNC(=S)Nc2ccc(F)cc2)cc1
className: 1

molecule: CCCCCCCCCCCC(=O)NC(C)(C)C(=O)N1CCCC1C(=O)NC(C)(C)C(=O)NC(C)(C)C(=O)N1CCCC1C(=O)NC(C)(C)C(=O)NC(C)(C)C(=O)N1CCCC1C(=O)NC(C)C(=O)NCCC(=O)NC(C)C(=O)NC(C)(C)C(=O)NC(C)(C)C(=O)NC(C)(C)C(=O)NCCC(=O)NC(C)(C)C(=O)NC(C)(C)C(=O)NC(C)(C)C(=O)NC(C)C(=O)NCCC(=O)O (stereo unspecified)
className: -1

molecule: Fc1ccc2nc(-c3cnn4cccnc34)sc2c1
className: 1

molecule: COc1cc(C(=O)c2cc(C(C)=O)c3c(C)cccn23)cc(OC)c1OC
className: 1

molecule: Cc1ccccc1NC(=O)Nc1nc2ccc([N+](=O)[O-])cc2s1
className: -1

molecule: CCNC(=O)Oc1ccc(/C(=C(/C)c2ccc(Cl)cc2)c2ccc(OCCN3CCCCCC3)cc2)cc1
className: -1
